# study_system: endogenous Ran (human, UniProt P62826 2-216)
# method_notes: co-IP of GFP-tagged KPNB1 truncations, western blot
measure: binding result

GFP-KPNB1 H1-8 (receptor, also called GFP-KPNB1 H1-8^WT; not shown: GFP/EGFP tag (pEGFP-C1, Clontech)) GGGSGGGSGGGSMELITILEKTVSPDRLELEAAQKFLERAAVENLPTFLVELSRVLANPGNSQVARVAAGLQIKNSLTSKDPDIKAQYQQRWLAIDANARREVKNYVLQTLGTETYRPSSASQCVAGIACAEIPVNQWPELIPQLVANVTNPNSTEHMKESTLEAIGYICQDIDPEQLQDKSNEILTAIIQGMRKEEPSNNVKLAATNALLNSLEFTKANFDKESERHFIMQVVCEATQCPDTRVRVAALQNLVKIMSLYYQYMETYMGPALFAITIEAMKSDIDEVALQGIEFWSNVCDEEMDLAIEASEAAEQGRPPEHTSKFYAKGALQYLVPILTQTLTKQDENDDDDDWNPCKAAGVCLMLLATCCED ... binds
